koff for assorted binders
Biological target: T1, Recombinant Human OX40L Protein, His Tag (Acro Cat. IL3-H52H4) (human, UniProt P23510 51-183)
T1 construct: Bought His-tagged protein; also called hOX40L
T1 sequence: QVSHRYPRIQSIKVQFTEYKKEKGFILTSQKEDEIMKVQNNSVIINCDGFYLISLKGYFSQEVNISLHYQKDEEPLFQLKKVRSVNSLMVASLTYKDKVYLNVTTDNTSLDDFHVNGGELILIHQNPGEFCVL
Assay: SPR (Biacore 8K), antibody captured, human OX40L injected, 1:1 fit
property: koff (s⁻¹)

INSERT INTO measurements (binder, property, result_qualifier, quantitative_result) VALUES
  ('anti-hOX40L antibody clone 122 (antibody, human IgG1, kappa, L234A L235A, V domains shown) VH: EVQLVESGGGLVQPGGSLRLSCAASGFTFSNYWMHWVRQAPGKGLVWVSRINSDGISTRYADSVKGRFTISRDNAKNTLYLQMKSLRAEDTAVYYCVRDFQLELPDYWGQGTLVTVSS VL: DIQMTQSPSSLSASVGDRVTITCRASQGIRDDLAWYQQKAGKAPKRLIFAASSLQSGVPSRFSGSGSGTEFTLTISGLQPEDFANYYCLQHKSNPFTFGQGTKLEIKR', 'koff', '<', '1e-06'),
  ('anti-hOX40L antibody clone 128 (antibody, human IgG1, kappa, L234A L235A, V domains shown) VH: EVQLVESGGGLVTPGGSLRISCAASGFTFNNAWMTWVRQAPGKGLEWVGRIKSISYGGTTDSAAPVKGRFTISRDDSENTLYLQMSSLKTEDTAVYYCSTGSVWKYGGSLDFWGQGTLVTVSS VL: DIQMTQSPSSLSASVGDRVTFTCRASQGISRFLNWYQQKPGKAPKLLIYAASTLQNGVPSRFSGSGSGTDFTLTISSLQPEDFATYFCQQTYSTPLTFGGGTKVEIYR', 'koff', '<', '1e-06'),
  ('anti-hOX40L antibody clone 130 (antibody, human IgG1, kappa, L234A L235A, V domains shown) VH: EVQLVESGGGLVKPGGSLRLSCAASGFTFSYAWMSWVRQAPGRGLEWVGRIKSETDGGTTDYAAPVKGRFTISRDHSENTLFLQMNSLKTEDTAVYYCTTGSSWNVYFFDFWGQGTLVTVSS VL: DIQMTQSPSSLSASVGDSVTITCRASQSISNYLNWYHQKPGKAPKLLIYAAYRLQTGVPSRFSGSGSGTDFTLTISSLQPEDFATYYCQQSYSSPLTFGGGTKVEIKR', 'koff', '=', '1.14e-05'),
  ('anti-hOX40L antibody clone 118 (antibody, human IgG1, kappa, L234A L235A, V domains shown) VH: EVQVVESGGGLIQPGGSLRISCAASGFPVSSNYMSWVRQAPGKGLDWVSIIYSRDSTHYADSVKGRFTMSRDNSKNTVYLQMNSLRAEDTAVYYCAGTLTYYYGAGSDYWGQGTLVTVSS VL: DIQMTQSPSSLSASVGDRVTITCRASQGIRNDLGWYQQKPGKAPKRLIYAASSLQSGVPSRFSGSGSGTEFTLTISSLQPEDFATYYCLQHNSYPWSFGQGTKVEIKR', 'koff', '=', '2.82e-05');

Where these numbers come from: patent US20260217843A1
